Target: Yer064c (UniProt P40041)
Sequence: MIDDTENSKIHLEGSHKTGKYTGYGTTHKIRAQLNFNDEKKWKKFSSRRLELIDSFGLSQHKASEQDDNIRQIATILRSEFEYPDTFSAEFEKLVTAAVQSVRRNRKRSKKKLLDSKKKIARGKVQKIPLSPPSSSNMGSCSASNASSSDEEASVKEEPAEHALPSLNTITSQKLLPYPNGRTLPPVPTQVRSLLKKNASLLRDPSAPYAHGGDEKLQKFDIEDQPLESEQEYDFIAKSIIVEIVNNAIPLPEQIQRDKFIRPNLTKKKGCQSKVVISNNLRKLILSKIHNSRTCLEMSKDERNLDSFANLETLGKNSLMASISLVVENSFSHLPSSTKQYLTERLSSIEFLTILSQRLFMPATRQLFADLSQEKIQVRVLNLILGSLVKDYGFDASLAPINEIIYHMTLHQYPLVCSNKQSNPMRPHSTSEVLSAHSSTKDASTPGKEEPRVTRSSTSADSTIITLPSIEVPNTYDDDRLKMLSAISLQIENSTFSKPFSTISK
Experiment: PBM E-score (8-mer binding enrichment) (E-score (-0.5 to 0.5)); higher = stronger / more preferred TF binding
Settings: protein concentration: 200 nM; construct: GST-full length
The full ranking holds about 33,000 sequences; the median of “E-score (-0.5 to 0.5)” is about -0.036, and the highest 2% start at about 0.37. The full list was thinned out, with the highest values kept by preference.
parameter.measured: PBM E-score
Enter the number alone.

Use these answered entries as a reference point.
- seq: "ATCAGGAA"
  PBM E-score: 0.00077
- seq: "CTTCGCGA"
  PBM E-score: 0.105
- seq: "ATTGATCC"
  PBM E-score: 0.0238

// query PBM E-score value for entry `AGAGTACA`
0.171

Form field: reported PBM E-score of `ATATCTAA`
0.128

What does the data say about its PBM E-score? Entry: `CATTCGAA`
0.0908

Dear colleague, I am looking for the recorded PBM E-score of the following sequence: `GATTCATA`
0.381

Field request: PBM E-score | item: `CCCGGCGG`
-0.182

Recorded PBM E-score for `ACTGACTA` , please?
0.447

# PBM E-score lookup, item `CGCGGACC`
-0.262

Need PBM E-score, item `AATCACAG`
0.359

State the recorded PBM E-score for this entry: `TATTCAGA`
0.0473

Quick check: PBM E-score of `CATTTCGA` ?
-0.0334

Quick check: PBM E-score of `AGCGTTAG` ?
-0.0809

From: the supplement of paper PMC3334620
